assay.target: TPβ (Homo sapiens, UniProt P21731)
Construct: expressed in transfected cells
Sequence (P21731 1-407 isoform P21731-2): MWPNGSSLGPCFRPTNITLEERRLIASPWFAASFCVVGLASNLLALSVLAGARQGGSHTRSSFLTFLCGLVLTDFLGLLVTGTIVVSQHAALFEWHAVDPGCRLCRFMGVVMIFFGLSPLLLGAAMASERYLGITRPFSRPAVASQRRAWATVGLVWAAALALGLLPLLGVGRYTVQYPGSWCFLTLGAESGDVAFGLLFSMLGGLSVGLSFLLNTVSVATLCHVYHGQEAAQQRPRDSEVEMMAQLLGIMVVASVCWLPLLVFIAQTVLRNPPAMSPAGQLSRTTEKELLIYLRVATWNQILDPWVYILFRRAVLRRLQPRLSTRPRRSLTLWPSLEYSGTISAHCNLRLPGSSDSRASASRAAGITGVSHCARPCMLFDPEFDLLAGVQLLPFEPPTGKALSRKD
experiment.summary: U46619-induced [Ca2+]i mobilization in HEK.TPβ cells
Type: cell-based
conditions: antagonist 1 μM; 1 μM U46619; % of agonist-induced response in vehicle-treated cells; read-out: Percentage of Control, TPβ, 1 μM
Lab note: compare remaining activity at 1 µM with 50%, writing satisfied if less and not satisfied if equal or more.

Recorded results for 5 compounds are shown here.
[[record]]
test_smiles = "COc1ccc(-c2cccc(Oc3ccc(C(F)(F)F)cc3S(=O)(=O)NC(=O)NC(C)(C)C)c2)cc1"
label_class = "satisfied"

[[record]]
test_smiles = "COc1ccc(-c2cccc(Oc3ccc(C(=O)O)cc3S(=O)(=O)NC(=O)NC(C)(C)C)c2)cc1"
label_class = "not satisfied"

[[record]]
test_smiles = "COc1ccc(-c2cccc(Oc3ccc(C(=O)Nc4ccccc4)cc3S(=O)(=O)NC(=O)NC(C)(C)C)c2)cc1"
label_class = "not satisfied"

[[record]]
test_smiles = "COc1ccc(-c2cccc(Oc3ccc(C(=O)Nc4ncco4)cc3S(=O)(=O)NC(=O)NC(C)(C)C)c2)cc1"
label_class = "not satisfied"

[[record]]
test_smiles = "COc1ccc(-c2cccc(Oc3ccc(N)cc3S(=O)(=O)NC(=O)NC(C)(C)C)c2)cc1"
label_class = "not satisfied"


Could you now look at the following compound, please?
Asked: Is it true that remaining activity at 1 µM reported for `COc1ccc(-c2cccc(Oc3ccc(C(=O)NCC4CC4)cc3S(=O)(=O)NC(=O)NC(C)(C)C)c2)cc1` is less than 50%?
Given back: not satisfied
